Data provenance: ChEMBL document CHEMBL4837224

- target: CYP2C9 (Homo sapiens)
- Sequence (P11712 whole entry): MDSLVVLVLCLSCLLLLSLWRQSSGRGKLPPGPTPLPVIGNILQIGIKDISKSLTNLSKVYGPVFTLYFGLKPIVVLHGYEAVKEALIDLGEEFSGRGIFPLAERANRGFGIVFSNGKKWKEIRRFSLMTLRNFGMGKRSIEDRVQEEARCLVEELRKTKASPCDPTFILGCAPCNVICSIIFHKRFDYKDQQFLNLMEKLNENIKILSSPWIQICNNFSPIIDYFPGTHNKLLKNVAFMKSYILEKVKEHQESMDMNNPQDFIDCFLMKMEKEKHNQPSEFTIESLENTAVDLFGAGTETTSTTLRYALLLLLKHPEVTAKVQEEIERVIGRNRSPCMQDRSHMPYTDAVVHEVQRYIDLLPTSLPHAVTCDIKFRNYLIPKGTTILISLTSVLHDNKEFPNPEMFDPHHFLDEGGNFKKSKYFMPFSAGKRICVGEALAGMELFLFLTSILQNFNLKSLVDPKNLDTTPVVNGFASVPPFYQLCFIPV
- assay explanation: Inhibition of CYP2C9 (unknown origin) at 10 uM relative to control
- Type: ADME
attribute measured: inhibition at 10 µM

CCC[C@H](C)Nc1ncc2c(C3CCN(C(=O)c4ccncc4)CC3)cn([C@H]3CC[C@H](O)CC3)c2n1 :: > 50%

Q: Form: Entry = "CCC[C@H](C)Nc1ncc2c(C3CCN(C(=O)c4cc(C)nc(C)c4)CC3)cn([C@H]3CC[C@H](O)CC3)c2n1" | System = CYP2C9 (Homo sapiens) | inhibition at 10 µM = ____
A: < 50%

---

- assay explanation: Cmax in mouse at 3 mg/kg, iv
- Assay type: ADME, organism-based
- Design: route intravenous, dose 3 mg/kg
- condition context: in vivo
attribute measured: Cmax
Please provide the amount together with its unit, number first.

CCC[C@H](C)Nc1ncc2c(C3CCN(C(=O)c4ccncc4)CC3)cn([C@H]3CC[C@H](O)CC3)c2n1 :: 7.8 µM
CCC[C@H](C)Nc1ncc2c(C3CCN(C(=O)[C@H]4CCCN(C)C4)CC3)cn([C@H]3CC[C@H](O)CC3)c2n1 :: 6.3 µM
CCC[C@H](C)Nc1ncc2c(C3CCN(C(=O)c4cc(C)nc(C)c4)CC3)cn([C@H]3CC[C@H](O)CC3)c2n1 :: 9.2 µM
Cc1cc(C(=O)N2CCC(c3cn([C@H]4CC[C@H](O)CC4)c4nc(N[C@@H](C)c5ccccc5)ncc34)CC2)cc(C)n1 :: 6.7 µM
CCC[C@H](C)Nc1ncc2c(C3CCN(C(=O)C4CCOCC4)CC3)cn([C@H]3CC[C@H](O)CC3)c2n1 :: 12 µM

Kindly give each listed record's Cmax.
1. CCC[C@H](C)Nc1ncc2c(C3CCN(C(=O)c4ccnnc4)CC3)cn([C@H]3CC[C@H](O)CC3)c2n1 (mixture of isomers)
2. CCC[C@H](C)Nc1ncc2c(C3CCN(S(=O)(=O)C4CCOCC4)CC3)cn([C@H]3CC[C@H](O)CC3)c2n1

A:
7.7 µM
9.5 µM

---

- assay explanation: Half life in mouse at 3 mg/kg, iv
- Type: ADME, organism-based
- condition context: in vivo
attribute measured: half-life (min)
Numbers only, in min.

As a guide, the following entries are already answered.
CCC[C@H](C)Nc1ncc2c(C3CCN(C(=O)[C@H]4CCCN(C)C4)CC3)cn([C@H]3CC[C@H](O)CC3)c2n1 :: 180
CCC[C@H](C)Nc1ncc2c(C3CCN(C(=O)C4CCOCC4)CC3)cn([C@H]3CC[C@H](O)CC3)c2n1 :: 16.8
CCC[C@H](C)Nc1ncc2c(C3CCN(C(=O)c4ccnnc4)CC3)cn([C@H]3CC[C@H](O)CC3)c2n1 (mixture of isomers) :: 14.4

Kindly give each listed record's half-life.
1. CCC[C@H](C)Nc1ncc2c(C3CCN(C(=O)c4cc(C)nc(C)c4)CC3)cn([C@H]3CC[C@H](O)CC3)c2n1
2. Cc1cc(C(=O)N2CCC(c3cn([C@H]4CC[C@H](O)CC4)c4nc(N[C@@H](C)c5ccccc5)ncc34)CC2)cc(C)n1
3. CCC[C@H](C)Nc1ncc2c(C3CCN(S(=O)(=O)C4CCOCC4)CC3)cn([C@H]3CC[C@H](O)CC3)c2n1
4. CCC[C@H](C)Nc1ncc2c(C3CCN(C(=O)c4ccncc4)CC3)cn([C@H]3CC[C@H](O)CC3)c2n1

A:
228
45.6
16.2
96
